Tested on: CD2F1 mice, L1210 leukemia ip, survival T/C
Assay: NCI In Vivo Anticancer Drug Screen. Data for tumor model L1210 Leukemia (intraperitoneal) in CD2F1 (CDF1) mice
Settings: endpoint: mean survival time; dose: 100.0 mg/kg/injection; schedule: Q01DX009 (ip); vehicle: Klucel (hydroxypropylcellulose) (HPC); higher = longer survival
Inconclusive results and toxic doses are left out.
Quick reference for T/C among some molecules

Examples with answers:
test_smiles	result
CC(C)(C)OC(=O)C(CC(=O)O)=C(c1ccccc1)c1ccccc1	102 % of control
O=C(NCCCCCCNC(=O)Nc1cccc(Cl)c1)Nc1cccc(Cl)c1	91 % of control
COc1ccc(NC(=O)Nc2c(C)n(C)n(-c3ccccc3)c2=O)c(Cl)c1	95 % of control

Considering `CCOC(=O)/C(N=Nc1ccc(O)cc1)=C(\C)O` , its T/C with CD2F1 mice, L1210 leukemia ip, survival T/C was recorded as 93 % of control

Noted T/C for `O=C(N/N=C/c1ccc(Cl)c(Cl)c1)c1ccccc1` , tested on CD2F1 mice, L1210 leukemia ip, survival T/C: 94 % of control

Sample `C(=Nc1cccc2ccccc12)c1ccc2c(c1)OCO2` , system: CD2F1 mice, L1210 leukemia ip, survival T/C. Its T/C is 91 % of control
